meta.source: patent EP0894433B1

measurement.notes: Partition coefficient between octanol and water by UV/visible absorption
Assay type: physicochemical
experimental.conditions: partition coefficient n-octanol/water, 25°C; read-out: P
parameter: logP

1) CCCCCCCCn1sc(Cl)cc1=O; > 2.75
2) Cn1sc2c(c1=O)CCC2; ~0.653
3) CCCCCCCCCCCCCCCCCCn1sc(Cl)cc1=O; > 2.68
4) CCCCCCCCCCCC[N+](C)(C)CCOc1ccccc1; ~1.7
5) CCCCCCCCCCCCCCCCn1sc2ccccc2c1=O; > 2.11
6) CCCCCCCCn1sc2ccccc2c1=O; > 2.52
